# system_under_test: T1, huZIP12-ECD-GST (human, UniProt Q504Y0 24-202)
# T1 construct: also called hZIP12-ECD-GST; human ZIP12-ECD-GST; not shown: glutathione S-transferase (GST) tag
# procedure_details: SPR single cycle kinetics (Biacore): mAb captured on protein A, huZIP12-ECD-GST injected at 3.12-800 nM

{"columns": ["binder", "kon [M⁻¹ s⁻¹]"],
 "data": [
  ["H3_W99H_L2 (antibody, V domains shown, Fc null human IgG1 / human kappa) VH: QVQLVESGGGVVQPGRSLRLSCAASGFTFSDYGMHWVRQAPGKGLEWVAYISSGGTTIYYADTVKGRFTISRDNSKNTLYLQMNSLRAEDTAVYYCARHTNLYAMDYWGQGTTVTVSS VL: DIVLTQSPDSLAVSLGERATINCRASKSVSTSGYSYMHWYQQKPGQPPKFLIYLASNKESGVPDRFSGSGSGTDFTLTISSLQAEDVAVYYCQHSREVPYTFGGGTKVEIKR", 84300],
  ["H2_Y60K_L2 (antibody, V domains shown, Fc null human IgG1 / human kappa) VH: QVQLVESGGGVVQPGRSLRLSCAASGFTFSDYGMHWVRQAPGKGLEWVAYISSGGTTIYKADTVKGRFTISRDNSKNTLYLQMNSLRAEDTAVYYCARWTNLYAMDYWGQGTTVTVSS VL: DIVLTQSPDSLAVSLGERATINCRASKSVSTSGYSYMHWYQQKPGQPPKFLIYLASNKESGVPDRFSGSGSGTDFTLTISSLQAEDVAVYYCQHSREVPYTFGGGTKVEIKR", 36500],
  ["H3_W99H_L1 (antibody, V domains shown, Fc null human IgG1 / human kappa) VH: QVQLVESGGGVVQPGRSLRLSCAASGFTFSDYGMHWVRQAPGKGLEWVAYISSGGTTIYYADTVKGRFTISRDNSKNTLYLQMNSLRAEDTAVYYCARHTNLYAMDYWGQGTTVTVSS VL: DIVLTQSPDSLAVSLGERATINCRASKSVSTQGYSYMHWYQQKPGQPPKFLIYLASNLESGVPDRFSGSGSGTDFTLTISSLQAEDVAVYYCQHSREVPYTFGGGTKVEIKR", 93400]
]}
